# experimental protocol: Oral bioavailability in Beagle dog blood at 10 mg/kg measured at 2 to 72 hrs by LC-MS/MS analysis
# Format: ADME, organism-based, Canis lupus familiaris
# condition details: beagle, blood, time 2-72 hrs
outcome measure: bioavailability (%)

>>> numeric_readout("C[C@H]1C[C@@H](N2C(=N)N[C@](C)(c3cccc(NC(=O)c4cccc(C#N)c4)c3Cl)CC2=O)CCO1")
120

----------
# measurement target: A-type voltage-gated potassium channel KCND3 (Homo sapiens, UniProt Q9UK17)
# Sequence (Q9UK17 whole entry): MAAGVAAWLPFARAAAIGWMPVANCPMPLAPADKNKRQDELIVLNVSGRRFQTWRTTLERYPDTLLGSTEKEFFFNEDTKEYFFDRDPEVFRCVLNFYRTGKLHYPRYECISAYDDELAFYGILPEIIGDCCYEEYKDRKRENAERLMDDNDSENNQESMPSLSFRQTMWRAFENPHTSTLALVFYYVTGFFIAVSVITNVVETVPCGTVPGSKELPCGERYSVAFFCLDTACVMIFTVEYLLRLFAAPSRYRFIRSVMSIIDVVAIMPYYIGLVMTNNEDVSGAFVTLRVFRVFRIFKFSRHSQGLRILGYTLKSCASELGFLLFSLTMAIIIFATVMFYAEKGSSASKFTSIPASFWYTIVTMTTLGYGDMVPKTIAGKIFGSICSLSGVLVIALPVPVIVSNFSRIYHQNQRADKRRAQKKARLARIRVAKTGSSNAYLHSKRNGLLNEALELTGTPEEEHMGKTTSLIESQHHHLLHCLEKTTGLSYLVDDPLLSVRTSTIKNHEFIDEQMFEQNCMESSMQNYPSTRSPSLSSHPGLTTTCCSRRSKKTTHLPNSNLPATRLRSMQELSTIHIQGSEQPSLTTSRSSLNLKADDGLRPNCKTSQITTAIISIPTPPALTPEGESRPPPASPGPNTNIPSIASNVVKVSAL
# experimental protocol: Inhibition of Kv4.3 (unknown origin) by patch clamp method
pIC50: −log10 of the molar value.
outcome measure: pIC50

>>> numeric_readout("C[C@H]1C[C@@H](N2C(=N)N[C@](C)(c3cccc(Nc4ccc(C5CC5)nc4)c3Cl)CC2=O)CCO1")
4.55
